Origin of values: patent US9394297B2

Experimental System: UniProt:Q9P1W9
Sequence (Q9P1W9 whole entry): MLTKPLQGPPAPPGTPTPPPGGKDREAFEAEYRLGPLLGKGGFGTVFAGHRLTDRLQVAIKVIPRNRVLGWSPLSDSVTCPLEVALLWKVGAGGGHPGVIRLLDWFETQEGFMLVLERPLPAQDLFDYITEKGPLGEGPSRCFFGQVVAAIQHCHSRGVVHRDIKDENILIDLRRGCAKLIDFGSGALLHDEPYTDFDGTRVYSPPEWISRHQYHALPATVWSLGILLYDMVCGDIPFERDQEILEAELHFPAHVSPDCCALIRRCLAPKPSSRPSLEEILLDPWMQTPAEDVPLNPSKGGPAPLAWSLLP
Protocol: Pim-Mn enzyme assay (HTRF, 384-well), Pim-2
Type: biochemical
Assay Conditions: Pim-2 enzyme 0.5 pM, ATP 1.5 μM, BAD (S112) 0.5 μM, HTRF, 22-point curve; read-out: Pim-2-Mn IC50 IP
Please provide measured log10(IC50) for the entries that follow.
Hey, these are logged values: log10 of IC50, nM being the unit before logging.

Example entries begin here.
Requested read-out: log10(IC50). Entry: Cc1nc2cccc(-c3cc4c([nH]3)CNC4=O)c2nc1NC1CC1 [Example 363]
-0.53

Do the same for Cc1nc2cccc(-c3cc4c([nH]3)CCNC4=O)c2nc1NC(C)(C)CNCCS(C)(=O)=O [Example 342] please
1.31

Dear colleague, could you send me log10(IC50) for each of the items below? Thanks.
1. Cc1nc2cccc(-c3cc4c([nH]3)CCN(CO)C4=O)c2nc1NC(C)(C)C [Example 299]
2. Cc1nc2cccc(-c3cc4c(=O)[nH]ncc4[nH]3)c2nc1NC(C)(C)C [Example 423]
3. Cc1nc2cccc(-c3cc(C(N)=O)c(C4CC4)[nH]3)c2nc1NC(C)(C)C [Example 418]
4. Cc1nc2cccc(-c3cc4c([nH]3)C3(CC3)NC4=O)c2nc1NCC(F)F [Example 331]
5. Cc1nc2ccc(F)c(-c3cc4c([nH]3)[C@@H](C)NC4=O)c2nc1NC1(C)CC1 [Example 379]

1: 0.95; 2: 0.57; 3: 0.89; 4: 0.05; 5: -1.32

Requested read-out: log10(IC50). Entry: Cc1nc2cccc(-c3cc4c([nH]3)CCNC4=O)c2nc1NC1CCN(C(=O)OC(C)(C)C)CC1 [Example 47]
1.54
